The reported numbers originate from ChEMBL document CHEMBL1129583.

Answer each item with its documented IC50.
- Tgt: Bifunctional dihydrofolate reductase-thymidylate synthase (Toxoplasma gondii, UniProt Q07422)
- Sequence (Q07422 whole entry): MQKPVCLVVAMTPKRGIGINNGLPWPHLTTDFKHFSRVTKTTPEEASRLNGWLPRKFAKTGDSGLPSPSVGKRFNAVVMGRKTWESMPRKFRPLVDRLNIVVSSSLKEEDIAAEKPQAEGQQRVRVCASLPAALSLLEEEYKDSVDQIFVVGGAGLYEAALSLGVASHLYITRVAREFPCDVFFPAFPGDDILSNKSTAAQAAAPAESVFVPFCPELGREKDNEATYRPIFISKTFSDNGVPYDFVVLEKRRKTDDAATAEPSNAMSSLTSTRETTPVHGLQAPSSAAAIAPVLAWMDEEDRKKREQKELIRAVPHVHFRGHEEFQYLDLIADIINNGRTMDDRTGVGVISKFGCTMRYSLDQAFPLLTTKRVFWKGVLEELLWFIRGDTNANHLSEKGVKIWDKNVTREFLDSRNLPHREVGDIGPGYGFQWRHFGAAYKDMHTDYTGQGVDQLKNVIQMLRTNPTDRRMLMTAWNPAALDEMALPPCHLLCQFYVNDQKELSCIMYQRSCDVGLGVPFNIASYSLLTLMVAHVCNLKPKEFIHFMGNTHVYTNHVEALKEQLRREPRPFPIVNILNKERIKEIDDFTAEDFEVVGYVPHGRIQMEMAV
// units = nM; emit number, no label

Fill in the blank: the reported IC50 of Nc1nc(N)c2nc(CNc3ccccc3)ccc2n1 is ____.
85

Fill in the blank: the reported IC50 of CN(Cc1ccc2nc(N)nc(N)c2n1)c1ccc(C(=O)C(F)(F)F)cc1 is ____.
46

Fill in the blank: the reported IC50 of CN(Cc1ccc2nc(N)nc(N)c2n1)c1ccccc1 is ____.
8.4

Fill in the blank: the reported IC50 of COc1ccc(N(C)Cc2ccc3nc(N)nc(N)c3n2)cc1OC is ____.
9.8

Fill in the blank: the reported IC50 of C#CCN(Cc1ccc2nc(N)nc(N)c2n1)c1ccc(C(=O)C(F)(F)F)cc1 is ____.
54

Fill in the blank: the reported IC50 of COc1cc(NCc2ccc3nc(N)nc(N)c3n2)cc(OC)c1OC is ____.
40

Fill in the blank: the reported IC50 of CN(Cc1ccc2nc(N)nc(N)c2n1)c1c(Cl)cccc1Cl is ____.
30

Fill in the blank: the reported IC50 of COc1ccc(SCc2cnc3nc(N)nc(N)c3c2C)cc1 is ____.
63

Fill in the blank: the reported IC50 of CC(=O)c1ccc(N(C)Cc2ccc3nc(N)nc(N)c3n2)cc1 is ____.
15

Fill in the blank: the reported IC50 of Nc1nc(N)c2nc(CNc3c(Cl)cccc3Cl)ccc2n1 is ____.
28

Fill in the blank: the reported IC50 of Nc1nc(N)c2nc(CSc3ccc4ccccc4c3)ccc2n1 is ____.
48

Fill in the blank: the reported IC50 of Nc1nc(N)c2nc(CNc3ccc4ccccc4c3)ccc2n1 is ____.
160

Fill in the blank: the reported IC50 of COc1ccc(OC)c(NCc2ccc3nc(N)nc(N)c3n2)c1 is ____.
120

Fill in the blank: the reported IC50 of COc1ccc(OC)c(N(C)Cc2ccc3nc(N)nc(N)c3n2)c1 is ____.
25

Fill in the blank: the reported IC50 of CN(Cc1ccc2nc(N)nc(N)c2n1)c1cccc2ccccc12 is ____.
18

Fill in the blank: the reported IC50 of COc1ccc(NCc2ccc3nc(N)nc(N)c3n2)cc1 is ____.
54

Fill in the blank: the reported IC50 of CN(Cc1ccc2nc(N)nc(N)c2n1)c1ccccc1Cl is ____.
15

Fill in the blank: the reported IC50 of Nc1nc(N)c2nc(CNc3cc(Cl)c(Cl)c(Cl)c3)ccc2n1 is ____.
87

Fill in the blank: the reported IC50 of Nc1nc(N)c2nc(CNc3ccc(Cl)c(Cl)c3)ccc2n1 is ____.
57

Fill in the blank: the reported IC50 of Nc1nc(N)c2nc(CSc3ccccc3)cnc2n1 is ____.
770

Fill in the blank: the reported IC50 of C#CCN(Cc1ccc2nc(N)nc(N)c2n1)c1ccc(C(C)=O)cc1 is ____.
20

Fill in the blank: the reported IC50 of Nc1nc(N)c2nc(CNc3cccc(Cl)c3)ccc2n1 is ____.
130

Fill in the blank: the reported IC50 of COc1cccc(N(C)Cc2ccc3nc(N)nc(N)c3n2)c1 is ____.
15

Fill in the blank: the reported IC50 of CN(Cc1ccc2nc(N)nc(N)c2n1)c1ccc2ccccc2c1 is ____.
16
